- Measured target: CB1 receptor (Homo sapiens, UniProt P21554)
- Sequence (P21554 whole entry): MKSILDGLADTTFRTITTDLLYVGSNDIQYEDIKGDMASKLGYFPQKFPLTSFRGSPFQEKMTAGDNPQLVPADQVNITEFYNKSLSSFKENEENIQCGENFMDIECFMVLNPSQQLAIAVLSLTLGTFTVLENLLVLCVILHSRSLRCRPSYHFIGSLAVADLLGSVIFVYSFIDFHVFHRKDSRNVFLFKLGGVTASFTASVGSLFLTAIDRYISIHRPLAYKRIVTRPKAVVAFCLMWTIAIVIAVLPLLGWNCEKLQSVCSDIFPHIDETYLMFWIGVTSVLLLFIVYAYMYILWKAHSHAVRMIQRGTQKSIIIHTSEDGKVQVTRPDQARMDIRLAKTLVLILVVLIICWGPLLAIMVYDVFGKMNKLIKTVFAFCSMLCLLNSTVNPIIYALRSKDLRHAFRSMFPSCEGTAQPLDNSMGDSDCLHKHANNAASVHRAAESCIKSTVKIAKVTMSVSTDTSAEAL
- Test name: DiscoveRx HitHunter cAMP XS+ assay in cAMP Hunter cell line, allosteric modulation of CP55,940 response
- Format: cell-based
- Test context: Table 1; preincubation with compound, then CP55,940 challenge; 20 μM forskolin
Parameter: cAMP % inhibition
Enter the number, and then the unit.

O=C(Nc1cccc(Oc2ccccc2)c1)Nc1cccc(-c2cccc(N3CCCC3)n2)c1 [Compound 10l]
57%
CN(C(=O)Nc1ccc(Cl)cc1)c1cccc(-c2cccc(N3CCCC3)n2)c1 [Compound 27]
31%
O=C(Nc1ccc(Cl)cc1)Nc1ccccc1-c1cccc(N2CCCC2)n1 [Compound 55]
110%
O=C(Nc1cccc(-c2cccc(N3CCCC3)n2)c1)NC1CCCCC1 [Compound 10z]
78%
COc1ccccc1NC(=O)Nc1cccc(-c2cccc(N3CCCC3)n2)c1 [Compound 10j]
0%
O=C(Nc1ccc(C(F)(F)F)cc1)Nc1cccc(-c2cccc(N3CCCC3)n2)c1 [Compound 10e]
161%

input: Consider the compound shown here: O=C(Nc1cccc(-c2cccc(N3CCCC3)n2)c1)Nc1ccc(Cl)cc1CCCCO [Compound 24a] What is its recorded cAMP % inhibition?
output: 82%

input: Subsequent entry: O=C(Nc1cccc(-c2cccc(N3CCCC3)n2)c1)Nc1ccc(Cl)cc1C#CCCO [Compound 22a]
output: 49%

----------
- Measured target: UniProt:P21554
- Test name: DiscoveRx HitHunter cAMP XS+ assay in cAMP Hunter cell line, allosteric modulation of CP55,940 response
- Type: cell-based
- Test context: Table 1; preincubation with compound, then CP55,940 challenge; 20 μM forskolin
# maps each entry to its cAMP % inhibition
Only the number, expressed in %, is required.

Example results:
O=C(Nc1ccc(I)cc1)Nc1cccc(-c2cccc(N3CCCC3)n2)c1 [Compound 10b]
126
Clc1ccc(Nc2nnc(-c3cccc(-c4cccc(N5CCCC5)n4)c3)o2)cc1
43
O=C(Nc1ccc(Oc2ccccc2)cc1)Nc1cccc(-c2cccc(N3CCCC3)n2)c1 [Compound 10k]
91

Would you kindly look at the next entry?
input: Would you mind telling me what cAMP % inhibition value was observed for O=C(Nc1cccc(-c2cccc(N3CCCC3)n2)c1)Nc1ccc(Cl)c(CCCCO)c1 [Compound 24b] ?
output: 111

----------
- Measured target: CB1 receptor (Homo sapiens)
- Test name: DiscoveRx HitHunter cAMP XS+ assay in cAMP Hunter cell line, allosteric modulation of CP55,940 response
- Assay type: cell-based
- Test context: Table 2, covalent allosteric modulators; read-out: cAMP activity EC50 (nm)
- Method: Once it was established that the cells were healthy and growing normally, cells were passaged from flasks using cell dissociation reagent buffer and seeded into white walled clear bottom 384-well microplates for compound profiling. […] Cells were treated the following day using the protocols shown below. cAMP modulation was determined using the DiscoveRx HitHunter cAMP XS+ assay. […]
Recorded EC50, one value per entry.
Answer in nM, number only, no unit symbol.

[N-]=[N+]=Nc1ccc(NC(=O)Nc2cccc(-c3cccc(N4CCCC4)n3)c2)cc1
297
CCc1c(C(=O)NCCc2ccc(N3CCCCC3)cc2)[nH]c2ccc(N=[N+]=[N-])cc12
391
CCc1c(C(=O)NCCc2ccc(N3CCCCC3)cc2)[nH]c2ccc(N=C=S)cc12
186
O=C(Nc1ccc(N=C=S)cc1)Nc1cccc(-c2cccc(N3CCCC3)n2)c1
119
O=C(Nc1ccc(I)cc1)Nc1cccc(-c2cccc(N3CCCC3)n2)c1
253

Attention now shifts to the item below.
input: Short answer please: EC50, CB1 receptor (Homo sapiens), entry O=C(Nc1ccc(C(=O)c2ccccc2)cc1)Nc1cccc(-c2cccc(N3CCCC3)n2)c1
output: 169

----------
- Measured target: CB1 receptor (Homo sapiens)
- Test name: DiscoveRx HitHunter cAMP XS+ assay in cAMP Hunter cell line, allosteric modulation of CP55,940 response
- Type: cell-based
- Test context: Table 1; preincubation with compound, then CP55,940 challenge; 20 μM forskolin; read-out: cAMP EC50
// pEC50 lookup, one value per entry
Answer as the number alone; pEC50 is minus log10 of concentration in mol/L.

Some solved cases for reference:
O=C(Nc1ccc(Cl)cc1)Nc1cccc(-c2cccc(N3CCOCC3)n2)c1 [Compound 67a]
6.25
O=C(Nc1cccc(-c2cccc(N3CCCC3)n2)c1)Nc1ccccc1C(F)(F)F [Compound 10g]
5.94
COc1cccc(NC(=O)Nc2cccc(-c3cccc(N4CCCC4)n3)c2)c1 [Compound 10i]
5.75

input: Quick one: pEC50 for O=C(Nc1cccc(-c2cccc(N3CCCC3)n2)c1)Nc1ccc(Cl)cc1CCCCO [Compound 24a] ?
output: 5.91
